The values you see were collected from patent US10640527B2.

# TEST TARGET: uric acid-xanthine/H+ symporter (UapA) (Emericella nidulans, UniProt Q07307, G411V)
# Construct: GFP; made in house; host or cells: Saccharomyces cerevisiae FGY217
# Sequence (Q07307 12-574 G411V): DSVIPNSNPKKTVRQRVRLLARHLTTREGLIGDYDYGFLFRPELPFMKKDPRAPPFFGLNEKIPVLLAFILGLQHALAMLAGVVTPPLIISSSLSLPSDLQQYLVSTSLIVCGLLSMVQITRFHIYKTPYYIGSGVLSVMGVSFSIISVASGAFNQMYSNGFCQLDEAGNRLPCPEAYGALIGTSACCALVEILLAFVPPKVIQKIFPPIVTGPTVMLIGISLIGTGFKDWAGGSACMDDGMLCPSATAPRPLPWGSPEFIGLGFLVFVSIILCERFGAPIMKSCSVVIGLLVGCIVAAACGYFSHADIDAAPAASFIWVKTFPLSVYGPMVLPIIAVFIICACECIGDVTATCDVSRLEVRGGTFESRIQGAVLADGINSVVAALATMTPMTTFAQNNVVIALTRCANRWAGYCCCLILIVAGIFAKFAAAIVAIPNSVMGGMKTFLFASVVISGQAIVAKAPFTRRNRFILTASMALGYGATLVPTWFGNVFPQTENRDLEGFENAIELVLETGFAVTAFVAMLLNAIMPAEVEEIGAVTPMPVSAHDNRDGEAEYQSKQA
# PROTOCOL DETAILS: UapA structural (thermal) stability, CPM assay
# Type: biochemical, Aspergillus nidulans
# TEST SETTINGS: CMC+0.2 wt %, 40° C., 120 minutes
PROPERTY MEASURED: effect in maintaining folded UapA, ranking among MGAs

CCCCCCCCCCCCCCC(CO[C@@H]1OC(CO)[C@@H](O)C(O)C1O)(CO[C@@H]1OC(CO)[C@@H](O)C(O)C1O)Cc1cc(CC(CCCCCCCCCCCCCC)(CO[C@@H]2OC(CO)[C@@H](O)C(O)C2O)CO[C@@H]2OC(CO)[C@@H](O)C(O)C2O)cc(CC(CCCCCCCCCCCCCC)(CO[C@@H]2OC(CO)[C@@H](O)C(O)C2O)CO[C@@H]2OC(CO)[C@@H](O)C(O)C2O)c1 (some centres unmarked) [MGA-C14]    had the highest effect
CCCCCCCCCCCCCC(CO[C@@H]1OC(CO)[C@@H](O)C(O)C1O)(CO[C@@H]1OC(CO)[C@@H](O)C(O)C1O)Cc1cc(CC(CCCCCCCCCCCCC)(CO[C@@H]2OC(CO)[C@@H](O)C(O)C2O)CO[C@@H]2OC(CO)[C@@H](O)C(O)C2O)cc(CC(CCCCCCCCCCCCC)(CO[C@@H]2OC(CO)[C@@H](O)C(O)C2O)CO[C@@H]2OC(CO)[C@@H](O)C(O)C2O)c1 (some centres unmarked) [MGA-C13]    had the highest effect
